B1: library; numbered along this chain (parent)
chain: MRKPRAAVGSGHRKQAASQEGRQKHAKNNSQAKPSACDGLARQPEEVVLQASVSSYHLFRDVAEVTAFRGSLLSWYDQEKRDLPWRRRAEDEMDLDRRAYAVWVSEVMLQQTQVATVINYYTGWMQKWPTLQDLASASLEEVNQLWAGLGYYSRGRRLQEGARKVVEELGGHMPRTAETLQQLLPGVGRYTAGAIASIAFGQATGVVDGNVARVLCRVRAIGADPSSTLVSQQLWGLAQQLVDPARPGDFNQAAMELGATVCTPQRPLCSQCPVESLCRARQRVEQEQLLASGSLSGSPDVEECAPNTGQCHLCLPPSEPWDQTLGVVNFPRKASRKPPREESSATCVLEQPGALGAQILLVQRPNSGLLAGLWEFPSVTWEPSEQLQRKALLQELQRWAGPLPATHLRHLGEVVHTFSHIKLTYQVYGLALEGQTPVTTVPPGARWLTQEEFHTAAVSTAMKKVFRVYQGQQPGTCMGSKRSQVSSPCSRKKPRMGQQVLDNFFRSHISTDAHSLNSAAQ

- Variants of: B1
- MEASUREMENT DESCRIPTION: 8OG:A repair function score (normalized; synonymous = 0, nonsense = -1) (normalized log-likelihood score); higher = more repair activity (WT-like);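 also: cells sorted at 72 h after reporter transfection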
- CONDITIONS USED: with 8OG:A DNA repair reporter (GFP) in HEK-293 MUTYH KO cells
Use condition met when the recorded 8OG:A repair function score is no lower than -0.08; use condition not met when it is lower.

Task: Form field: 8OG:A repair function score at least -0.08? Entry: V242L
Output: condition not met

Task: Now the variant S226P
Output: condition not met

Task: Now the variant A238G
Output: condition not met

Task: Now the variant A520V
Output: condition met

Task: Now the variant Q111M
Output: condition not met

Task: Now the variant M255I
Output: condition not met

---
Task: Form field: 8OG:A repair function score at least -0.08? Entry: A456S
Output: condition not met

Task: Now the variant Y120E
Output: condition not met

Task: Now the variant T308D
Output: condition met
